# Procedure text: Biotin-PGE2 ELISA (PGE2-biotinamide binding to captured IgG)
# Measurement parameters: Biotin-PGE2 0 μM
Kindly supply the reported Binding to PGE2-Biotinamide (OD450) values for the records listed here.

The recorded Binding to PGE2-Biotinamide (OD450) for K1B: human anti-PGE2 antibody from PROfusion mRNA display; VH SEQ ID NO 5, VL SEQ ID NO 9 (antibody, V domains shown) VH: EVQLVQSGAEVKRPGASVKVSCKTSGYTFTNYDINWVRLAPGQGLEWMGCMNPTTGKTGYAQKFQGRVTMTRDTTIATAYMELSRLTSEDTAVYYCARGRGYSPGYGVAYADYWGQGTLVTVSS VL: DIQLTQSPSSLPASVGDRVTITCRASQSISTYLNWYQQTPGKAPSLLIYAASSLQSGVPSRFSGSGSGTDFTLTISSLQPEDFATYYCQQSYSPPPTFGGGTKVEIKR is 0.07

The recorded Binding to PGE2-Biotinamide (OD450) for L11: human anti-PGE2 antibody from PROfusion mRNA display; VH SEQ ID NO 25, VL SEQ ID NO 29 (antibody, V domains shown) VH: EVQLVQSGPELKKPGTSVKVSCKASGYTLTTYAMNWVRQAPGQGLEWMGWIDTSTGNPTYAPGFLGRFVFSLDTSLSTTYLQISSLKPDDTAVYYCARSSHTRPGDFWGQGTLVTVSS VL: QSGLTQPPSVSGTPGQRVTISCSGSESNVGTNSVNWYQQLPGAAPRLLIRGNSDRPSGVPDRFSASKSGTSASLAISRLQSEDEADYFCGACDGRLSGLYVFGTGTKVTVL is 0.04

The recorded Binding to PGE2-Biotinamide (OD450) for K7H: human anti-PGE2 antibody from PROfusion mRNA display; VH SEQ ID NO 21, VL SEQ ID NO 24 (antibody, V domains shown) VH: EVQLVQSGSELKKPGASVKVSCKASGYSFTEYGISWVRQAPGQGPEWMGCISPYNGKLHYAQKFLGRVTMTTDTSTNTAYMELRSLKSDDTAVYYCARGGFSSYDSSGYYYVTDHWGQGTLVTVSS VL: DIRLTQSPSSLPASVGDRVTITCRASQSISTYLNWYQQTPGKAPSLLIYAASSLQSGVPSRFSGSGSGTDFTLTISSLQPEDFATYYCQQSYSPPPTFGGGTKVEIKR is 0.04

The recorded Binding to PGE2-Biotinamide (OD450) for L21: human anti-PGE2 antibody from PROfusion mRNA display; VH SEQ ID NO 33, VL SEQ ID NO 36 (antibody, V domains shown) VH: EVQLVQSGSELKKPGTSVKVSCKASGYTLTTYAMNWVRQAPGQGLEWMGWIGTSTGNPTYAQGFTGRFVFSLDTSVNTAHLQIYSLKAEDTALYYCARSSLTRPADYWGQGTLVTVSS VL: QSGLTQPPSVSGAPGQRVTISCFGSSSNIGAGYDVHWYQQLPGAAPKLLIFGNNNRPSGVPDRFSGSKSGTSASLAITGLQAEDEADYYCQSCDSSLSGAVFGTGTKVTVL is 0.08
